Source: patent US20240287079A1

target: NLRP3 inflammasome (Homo sapiens (Human), UniProt Q96P20); test: Evaluation of NLRP3 inflammasome inhibitory activity (inhibition of IL-1β production in LPS/Nigericin-stimulated THP1-Null cells); conditions: IL-1β production in THP1-Null cells, PMA, LPS 1 μg/mL, Nigericin 7.5 μmol/L, AlphaLISA
Sequence (Q96P20 whole entry): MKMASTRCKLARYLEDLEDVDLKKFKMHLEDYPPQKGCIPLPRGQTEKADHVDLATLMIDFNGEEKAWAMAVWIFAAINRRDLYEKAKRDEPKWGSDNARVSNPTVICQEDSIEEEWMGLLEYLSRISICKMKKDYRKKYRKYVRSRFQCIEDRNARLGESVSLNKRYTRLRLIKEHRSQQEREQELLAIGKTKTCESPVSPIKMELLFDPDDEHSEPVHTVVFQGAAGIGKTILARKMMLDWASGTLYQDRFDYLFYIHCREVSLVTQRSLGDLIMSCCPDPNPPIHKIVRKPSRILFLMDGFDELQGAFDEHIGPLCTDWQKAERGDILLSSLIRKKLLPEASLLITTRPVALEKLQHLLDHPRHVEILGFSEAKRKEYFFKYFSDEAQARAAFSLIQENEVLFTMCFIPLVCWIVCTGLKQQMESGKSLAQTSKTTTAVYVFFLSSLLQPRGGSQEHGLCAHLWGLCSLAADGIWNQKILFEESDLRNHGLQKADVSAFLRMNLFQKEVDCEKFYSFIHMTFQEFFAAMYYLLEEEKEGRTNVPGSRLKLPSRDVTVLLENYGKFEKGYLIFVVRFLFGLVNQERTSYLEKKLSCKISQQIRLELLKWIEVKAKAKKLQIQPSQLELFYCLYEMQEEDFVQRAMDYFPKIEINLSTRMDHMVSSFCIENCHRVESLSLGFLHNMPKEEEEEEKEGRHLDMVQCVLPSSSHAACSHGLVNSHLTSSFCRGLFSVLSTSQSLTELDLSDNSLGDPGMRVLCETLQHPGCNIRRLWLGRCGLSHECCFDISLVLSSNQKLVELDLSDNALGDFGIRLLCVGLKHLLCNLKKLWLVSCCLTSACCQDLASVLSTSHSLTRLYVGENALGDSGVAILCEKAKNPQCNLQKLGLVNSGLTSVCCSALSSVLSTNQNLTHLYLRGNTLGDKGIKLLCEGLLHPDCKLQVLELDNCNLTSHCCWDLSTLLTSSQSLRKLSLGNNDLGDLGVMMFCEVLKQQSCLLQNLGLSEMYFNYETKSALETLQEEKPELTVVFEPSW
The threshold is 20 nM. Values of IC50 beneath it are tagged satisfied; values meeting or exceeding it are tagged not satisfied.

| compound | class-name |
| --- | --- |
| CC(=O)N1CCN(c2nc3nn(-c4c(C)cc(C5CC5)cc4C)cc3c(=O)[nH]2)[C@H](C)C1 | satisfied |
| Cc1nc(C(F)(F)F)ccc1-n1cc2c(=O)[nH]c(N3CCOCC3)nc2n1 | not satisfied |
| Cc1cc(Br)ccc1-n1cc2c(=O)[nH]c(N3CCC(C#N)C3)nc2n1 (racemic) | satisfied |
| O=c1[nH]c(N2CCCC2)nc2nn(-c3ccc(F)cc3Cl)cc12 | not satisfied |
| Cc1cc(Cl)cc(CO)c1-n1cc2c(=O)[nH]c(N3CCOCC3)nc2n1 | not satisfied |
| CCc1ccc(-n2cc3c(=O)[nH]c(N4CCCC4)nc3n2)c(C)c1 | satisfied |
| Cc1cc(C)c(-n2cc3c(=O)[nH]c(N4CCN(S(=O)(=O)C5CC5)CC4)nc3n2)c(C)c1 | satisfied |
| Cc1cc(OC(F)F)cc(C)c1-n1cc2c(=O)[nH]c(N3CCOCC3=O)nc2n1 | not satisfied |
